meta.source: PubChem BioAssay (NCI)

- Tested on: HCC-2998 colon
- MEASUREMENT DESCRIPTION: NCI-60 one-dose screen, 48 h (100 = growth as untreated, 0 = no growth, -100 = all killed)
- COND: 10 µM unless noted
The panel holds about 83,000 compounds, 20% with a hit somewhere; the sample as a whole holds those more often. Calls of active or inactive are those of the source. How the source made its calls: active means growth percent below 10; inactive means the rest.
READOUT LABEL: growth

- CCSc1ccc(C2C(Br)C(=O)N2c2cc(OC)c(OC)c(OC)c2)cc1 (stereo not given): 31.7% (inactive)
- Fc1ccc(N/N=C/c2ccc(-n3cccn3)cc2)cc1: 97.5% (inactive)
- c1ccc(Sc2ncccn2)nc1: 101% (inactive)
- CC[C@]12C=CCN3CC[C@@]4(c5ccc(OC)cc5N(C)[C@H]4[C@@](O)(C(=O)OC)[C@@H]1OC(=O)CCC(=O)O[C@H]1CC[C@H]4[C@@H]5CC[C@H]6CC(=O)CC[C@]6(C)[C@H]5CC[C@]14C)[C@@H]32: 41.4% (inactive)
- COCCOCCOCc1n(Cc2ccc3ccccc3n2)c2ccccc2[n+]1Cc1ccc2ccccc2n1: 23.2% (inactive)
- Cc1cc(O)cc(O)c1N=NC1=NCCS1: 95.7% (inactive)
- CCN1CCN(Cc2ccc(NC(=O)c3cccc(C#Cc4cccc5[nH]nc(N)c45)c3)cc2C(F)(F)F)CC1: -87.4% (active)
- CS(=O)(=O)O[C@@H]1C(=O)N(c2cc3c4ccccc4ccc3c3ccccc23)[C@H]1c1ccc(F)cn1: 60.1% (inactive)
- [2H]c1nc(Nc2ncc3cc(C(=O)N(C)C)n(C4CCCC4)c3n2)c([2H])c([2H])c1N1C([2H])([2H])C([2H])([2H])NC([2H])([2H])C1([2H])[2H]: 77.5% (inactive)
- COc1cc(NCC(=O)Nc2cc(Nc3cccc(C(F)(F)F)c3)ncn2)c(Cl)c(OC)c1Cl: 103% (inactive)
- C=C(C)[C@@H]1CC[C@]2(C(=O)NCCCO)CC[C@]3(C)[C@H](CC[C@@H]4[C@@]5(C)CCCNC(C)(C)[C@@H]5CC[C@]43C)[C@@H]12: 74.3% (inactive)
- Cc1cccc(C)c1NCc1nnc(-c2ccco2)o1: 103% (inactive)
- O=C(N/N=C/C[C@@H]1[C@@H](/C=C/[C@@H](O)COc2cccc(Cl)c2)[C@H](O)C[C@@H]1O)c1ccncc1: 104% (inactive)
- COC1=CC2C=C(C3N(c4ccccc4)NC(=O)[C@@H]4CCCN34)C(=O)NC2C=C1 (stereo not given in full): 94.8% (inactive)
- O=C(Nc1ccc2ncnc(Nc3cccc(C(F)(F)F)c3)c2c1)c1cccs1: 62.8% (inactive)
- CNc1cccc2c1C(=O)c1cccc(N)c1C2=O: 93.9% (inactive)
- O=C(O)c1cc(N=Nc2ccc(-c3ccc(N=Nc4c(S(=O)(=O)O)cc5ccc(Nc6ccccc6)cc5c4O)cc3)cc2)ccc1O: 89.8% (inactive)
- COc1cc(NC(=O)Nc2cnc(Nc3ccc(N4CCOCC4)cc3)nc2Oc2ccc(C(F)(F)F)cc2)cc(OC)c1: 104% (inactive)
- O=c1c2ccccc2oc2ccc(OCCCCCN3CCCCCC3)cc12: 84.6% (inactive)
- Cc1nc2sc(C(=O)Nc3ccccc3Cl)c(N)c2cc1C(C)O (stereo not given): 84.5% (inactive)
- COc1cc(C2CC(c3ccc(Nc4nc(NCCO)nc(NCCO)n4)cc3)=NN2c2cc(Cl)cc(Cl)c2)cc(OC)c1OC (stereo not given): 24.4% (inactive)
- O=C(/C(=C/c1ccc([N+](=O)[O-])cc1)SCc1ccc(F)cc1)c1ccc(Cl)cc1: 84.3% (inactive)
- COc1cc(C2=NN(C=O)C(c3cccc(Nc4ccnc5cc(C(F)(F)F)ccc45)c3)C2)cc(OC)c1OC (stereo not given): 70.1% (inactive)
- [2H]c1cc2c(c([2H])c1F)/C(=C/c1[nH]c(C)c(C(=O)NCCN(CC)CC)c1C)C(=O)N2: 69.7% (inactive)
- Cc1cccc(C)c1Nc1nnc(-c2ccc(F)cc2)o1: 99.4% (inactive)
- CCOC(=O)c1c(C)nc2c(c1N)/C(=C/c1cccs1)C(=O)N2Cc1ccccc1: 96% (inactive)
- Cc1nccc2c3ccc(OCc4cn(-c5ccc(Br)cc5)nn4)cc3n(CC(C)C)c12: 70.3% (inactive)
- CCC1=C[C@H]2CN(CCc3c([nH]c4ccccc34)[C@@](C(=O)OC)(c3cc4c(cc3OC)N(C)[C@H]3[C@@](O)(C(=O)OC)[C@H](OC(C)=O)[C@]5(CC)[C@@H]6C[C@@H]6CN6CC[C@]43[C@@H]65)C2)C1: 22.2% (inactive)
- Cc1cc(Nc2nc(SCc3ccc(C(=O)Nc4ccc(F)cc4N)cc3)nn3cccc23)n[nH]1: 23.9% (inactive)
- COC(=O)CCc1n(Cc2ccc3ccccc3c2)c2ccccc2[n+]1Cc1ccc2ccccc2c1: -2.47% (active)
- COc1ccc(-n2cc(COc3ccc4c5ccnc(C)c5n(CC(C)C)c4c3)nn2)cc1: 85.1% (inactive)
- Cc1ccn2c3c(c(C(=O)O)c2c1)C(=O)c1ccccc1C3=O: 62% (inactive)
- O=C(Nc1ccc(N=Cc2ccccc2O)cc1)NC1C=c2ccccc2=CC1 (stereo not given): 100% (inactive)
- O=CN1N=C(c2ccc3c(c2)OCO3)CC1c1cccc(Nc2ccnc3cc(C(F)(F)F)ccc23)c1 (stereo not given): 93.6% (inactive)
- COC(=O)c1cc2c3c(cc(O)c2[nH]1)N(C(=O)C1Cc2cc(OC)c(OC)c(OC)c2N1)CC3CCl (stereo not given): -73.2% (active)

====

- System: HOP-62 NSCLC
- MEASUREMENT DESCRIPTION: NCI-60 one-dose screen, 48 h (100 = growth as untreated, 0 = no growth, -100 = all killed)
- COND: 10 µM unless noted
About 83,000 compounds went through this panel and 20% of them were active in at least one assay; those are over-represented in the sample as a whole.
Please respond with 1.0 when measured growth is strictly beneath 30%, and with 0.0 in all other cases.

* Cc1cc(C)c2nc(Nc3nc(C)c(C)c(=O)[nH]3)nc(C)c2c1 | 1.0
* CO[C@@]12C=C[C@@]34CCC(=O)N3c3ccccc3[C@@H](O1)C4C2 | 0.0
* CNC(=O)c1cc(Oc2ccc3c(c2)sc2nc(-c4ccc(NC(C)=O)cc4)cn23)ccn1 | 0.0
* O=CN1N=C(c2ccc(F)cc2)CC1c1cccc(Nc2ccnc3cc(C(F)(F)F)ccc23)c1 (centres undefined) | 0.0
* O=C(NCc1ccccc1)c1ccc2c(c1)NC(=O)[C@@H]1CCCN21 | 0.0
* COc1ccc(C(C)c2cc(OC)c(OC)c(OC)c2)cc1 (centres undefined) | 0.0
* O=C1NN(c2ccccc2)C(c2ccc(Cl)cc2)N2CCC[C@H]12 (some centres undefined) | 0.0
* CC1CCN(CCCCCOc2ccc3oc4cc(Cl)ccc4c(=O)c3c2)CC1 | 0.0
* CC(=O)c1cc2c(N)c(C(=O)Nc3ccccn3)sc2nc1C | 0.0
* CC(C)C[C@H](C(=O)O)N(C)C(=O)[C@@H]1CCCN1C(=O)[C@H](C)OC(=O)[C@H](CCC(N)=O)NC(=O)[C@@H]1CCC(=O)N1 | 0.0
* C/C(=N/Nc1nc2ccccc2n1C)c1ccccn1 | 1.0
* COc1cc(N=Nc2cc(S(=O)(=O)O)cc3cc(S(=O)(=O)O)cc(O)c23)c(C)cc1N=Nc1c(S(=O)(=O)O)cc2cc(Nc3ccccc3)ccc2c1O | 0.0
* COc1cc2cc(c1Cl)N(C)C(=O)C[C@H](OC(=O)[C@H](C)N(C)C(=O)CCS)C[C@]1(C)O[C@H]1[C@H](C)[C@@H]1C[C@@](O)(NC(=O)O1)[C@H](OC)/C=C/C=C(\C)C2 | 1.0
* O=C(CCc1nnco1)c1nc2ccc([N+](=O)[O-])cc2[nH]1 | 0.0
* CCOC(=O)NCCc1nc2c([nH]1)c(=O)n(C)c(=O)n2C | 0.0
* c1ccc(Sc2ncccn2)nc1 | 0.0

====

- System: NCI/ADR-RES ovarian
- MEASUREMENT DESCRIPTION: NCI-60 one-dose screen, 48 h (100 = growth as untreated, 0 = no growth, -100 = all killed)
- COND: 10 µM unless noted
This is part of a sample that, as a whole, favours compounds with a hit. Of some 83,000 tested, about 20% had one in any assay.
Listed next: entries and their corresponding growth.
READOUT LABEL: growth (%)

• CCSc1nc(Cl)c(C#N)c(-c2ccc(F)cc2)n1 = 102
• CN(C)CCCn1c2c(c3cc(-c4ccco4)ccc3c1=O)C(=O)c1ccccc1-2 = 53.6
• C=C1C(=O)O[C@H]2[C@H]1CC/C(COC(=O)CCCCCCCC(=O)OC/C1=C/CC[C@@]3(C)O[C@H]3[C@H]3OC(=O)C(=C)[C@@H]3CC1)=C\CC[C@@]1(C)O[C@@H]21 = 28.6
• CCCCCCN1C(=O)CN=C1Nc1ccc2cc3ccc(NC4=NCC(=O)N4CCCCCC)cc3nc2c1 = 81.3
• CCCCCCCc1n(Cc2ccc3ccccc3c2)c2ccccc2[n+]1Cc1ccc2ccccc2c1 = -35
• C#C[C@@]1(O)[C@@H](CO)O[C@@H](n2cc(F)c3c(N)ncnc32)[C@@H]1O = 4.76
• Cc1cc2ccccc2c[n+]1CC(=O)c1ccc(-c2ccccc2)cc1 = 101
• CC1CCN(CCCCCOc2ccc3oc4ccccc4c(=O)c3c2)CC1 = 78.3
• C=C1C(=O)O[C@H]2[C@H]1CC/C(COC(=O)c1cccnc1N)=C\CC[C@@]1(C)O[C@@H]21 = 31.9
• COC(=O)c1ccc2c(c1)n(Cc1ccc3ccccc3c1)c[n+]2Cc1ccc2ccccc2c1 = 101
• Cc1c(Br)cccc1NC(=O)c1sc2nc3c(cc2c1N)CN(Cc1ccccc1)CC3 = 24.2
• CCOC(=O)c1sc(/N=C2\NC(=O)/C(=C/c3ccc(N4CCN(C)CC4)cc3)S2)nc1C = 98.1
• CCC[S@](=O)c1ccc2nc(NC(=O)OC)[nH]c2c1 = 106
• O=C(O)COc1ccc2c(=O)c3sc4c(=O)c5ccccc5c(=O)c4c3c(=O)c2c1 = 40.8
• NCCN1CCNCC1 = 102
• CCc1c(C(=O)N[C@@H](C(=O)OCc2ccccc2)C(C)O)[nH]c2ccc(Cl)cc12 (stereo not given in full) = 68.2
• COc1ccc(NC(=O)Nc2ccc(Nc3nc(C)cc(Nc4ccc(C)cc4)n3)cc2)cc1 = -56.3
• Cc1cnc(SCc2ccc(Cl)cc2)[nH]c1=S = 103
• c1ccc(-c2n(Cc3ccc4ccccc4n3)cc[n+]2Cc2ccc3ccccc3c2)cc1 = 96
• COCCc1n(Cc2ccc3ccccc3c2)c2ccccc2[n+]1Cc1ccc2ccccc2c1 = 84.4
